- Tested on: Salmonella enteritidis
- measurement_description: Antimicrobial activity against Salmonella enterica subsp. enterica serovar Enteritidis ATCC 13076 at 25 ug/disk measured after overnight incubation by disk diffusion method
- Format: functional
- details: read-out: IZ
Classification field: enter yes for zone of inhibition at 25 µg/disc values not below 6 mm, no for values below it.

Use these answered entries as a reference point.
{"columns": ["cpd_smiles", "label"],
 "data": [
  ["Cc1ccc(S(=O)(=O)n2nnnc2[Se]c2ccc(Br)cc2)cc1", "yes"],
  ["Cc1ccc([Se]c2nnnn2S(=O)(=O)c2ccc(C)cc2)cc1", "no"],
  ["Cc1ccc(S(=O)(=O)n2nnnc2[Se]c2ccc(Cl)cc2)cc1", "yes"],
  ["Cc1ccc(S(=O)(=O)n2nnnc2[Se]c2ccccc2C)cc1", "no"],
  ["Cc1ccc(S(=O)(=O)n2nnnc2[Se]c2ccccc2Cl)cc1", "yes"]
]}

Pending molecule:
**Q:** Textbook exercise: given the entry Cc1ccc(S(=O)(=O)n2nnnc2[Se]c2ccc(I)cc2)cc1 , state whether its zone of inhibition at 25 µg/disc is greater than or equal to 6 mm.
**A:** no

====

- Tested on: Pseudomonas aeruginosa
- measurement_description: Antimicrobial activity against Pseudomonas aeruginosa ATCC 27853 at 25 ug/disk measured after overnight incubation by disk diffusion method
- Format: functional
The source made the active and inactive calls. The calls are words filed in the database; no cut-off is given here.
measured_attribute: inhibition zone (IZ)

Some compounds with recorded inhibition zone (IZ):
{"columns": ["cpd_smiles", "reported"],
 "data": [
  ["Cc1ccc(S(=O)(=O)n2nnnc2[Se]c2ccccc2C)cc1", "inactive"],
  ["Cc1ccc(S(=O)(=O)n2nnnc2[Se]c2ccc(Cl)cc2)cc1", "inactive"],
  ["Cc1ccc(S(=O)(=O)n2nnnc2[Se]c2ccc(I)cc2)cc1", "inactive"],
  ["Cc1ccc(S(=O)(=O)n2nnnc2[Se]c2ccc(Br)cc2)cc1", "inactive"]
]}

Per the record, Cc1ccc([Se]c2nnnn2S(=O)(=O)c2ccc(C)cc2)cc1 has inhibition zone (IZ) of inactive

====

- Tested on: Staphylococcus aureus
- measurement_description: Antimicrobial activity against Staphylococcus aureus ATCC 25923 at 25 ug/disk measured after overnight incubation by disk diffusion method
- Assay type: functional
- details: read-out: IZ
Assign 1 to entries whose zone of inhibition at 25 µg/disc meets or exceeds 5 mm; assign -1 to the rest.

Below, 4 compounds whose answers are already recorded.
{"columns": ["cpd_smiles", "label"],
 "data": [
  ["Cc1ccc(S(=O)(=O)n2nnnc2[Se]c2ccccc2Cl)cc1", -1],
  ["Cc1ccc(S(=O)(=O)n2nnnc2[Se]c2ccccc2C)cc1", 1],
  ["Cc1ccc(S(=O)(=O)n2nnnc2[Se]c2ccc(Cl)cc2)cc1", -1],
  ["Cc1ccc(S(=O)(=O)n2nnnc2[Se]c2ccc(I)cc2)cc1", 1]
]}

Continue with the compound presented below.
**Q:** Quick check, zone of inhibition at 25 µg/disc >= 5 mm? Cc1ccc(S(=O)(=O)n2nnnc2[Se]c2ccc(Br)cc2)cc1
**A:** 1

Data credit: ChEMBL document CHEMBL3046817
